Assay: Inhibition of potassium-stimulated hydrogen potassium ATPase in pig gastric mucosal microsomal fraction assessed as reduction in liberated inorganic phosphate level after 30 mins in presence of KCl by malachite green staining based colorimetric method
Parameters: species or system Sus scrofa
parameter_measured: IC50 (nM)

Please review the entries below; each comes with its answer.
>>> print(df.to_string())
                                   compound  reported_value
0  O=C1c2ccccc2CCC12CCCCN2CCc1ccccc1 (stereo unspecified)            1000
1  COc1cccc2c1C(=O)C1(CCCCN1CCc1ccccc1C)CC2 (stereo unspecified)             290

P. COc1ccc2c(c1)CCC1(CCCCN1CCc1ccc(F)cc1C)C2=O (stereo unspecified)
Q. COc1cccc(CCN2CCCC[C@@]23CCc2cc(OC)ccc2C3=O)c1
R. COc1ccc2c(c1)C(=O)C1(CCCCN1CCc1ccccc1C)CC2 (racemic)
S. COc1ccc2c(c1)CCC1(CCCCN1CCc1c(C)cc(C)cc1C)C2=O (stereo unspecified)
Put the items in order so that reported IC50 rises from first to last. When ranking, write the labels in the order the request describes.
P, S, R, Q
(P: 57 nM, S: 140 nM, R: 270 nM, Q: 1100 nM)

###

Assay: Inhibition of potassium-stimulated hydrogen potassium ATPase in pig gastric mucosal microsomal fraction assessed as reduction in liberated inorganic phosphate level after 30 mins in presence of KCl by malachite green staining based colorimetric method
Parameters: species or system Sus scrofa
parameter_measured: IC50 (nM)

                                   molecule  parameter_measured  output_unit  reported_value
0  Cc1ccccc1CCN1CCCCC12CCc1ccccc1C2=O (racemic)                IC50           nM             290
1  COc1ccc2c(c1)CCC1(CCCCN1CCc1ccccc1)C2=O (stereo unspecified)                IC50           nM             290
2  COc1cccc2c1CCC1(CCCCN1CCc1ccccc1C)C2=O (stereo unspecified)                IC50           nM             300

a. COc1ccc2c(c1)CC[C@@]1(CCCCN1CCc1cccc(F)c1)C2=O
b. O=C1c2cccc3[nH]cc(c23)CC12CCCCN2CCc1ccccc1 (stereo unspecified)
c. COc1ccc2c(c1)CCC1(CCCCN1CCCc1ccccc1)C2=O (stereo unspecified)
d. COc1ccc2c(c1)CC[C@@]1(CCCCN1CCc1ccc(F)cc1)C2=O
e. COc1ccc2c(c1)CCC1(CCCCN1CCc1ccccc1Cl)C2=O (stereo unspecified)
Reorder: IC50, max to min. When ranking, write the labels in the order the request describes.
b, c, a, e, d
(b: 1600 nM, c: 890 nM, a: 370 nM, e: 170 nM, d: 64 nM)

###

Experiment: Lipophilicity, log D of the compound
Format: physicochemical
Settings: octanol/water
parameter_measured: logD
Keep the answer to the number alone.

Any idea what its logD is? The compound is CC(=O)Nc1ccc2c(c1)CC[C@@]1(CCCCN1CCc1ccccc1C)C2=O
3.56

###

Experiment: Inhibition of potassium-stimulated hydrogen potassium ATPase in pig gastric mucosal microsomal fraction assessed as reduction in liberated inorganic phosphate level after 30 mins in presence of KCl by malachite green staining based colorimetric method
Design: species or system Sus scrofa
parameter_measured: IC50 (nM)

Please review the entries below; each comes with its answer.
>>> print(df.to_string())
                                   molecule  reported_value
0  CC(=O)Nc1ccc2c(c1)CCC1(CCCCN1CCc1ccccc1C)C2=O (racemic)              45
1  COc1ccc2c(c1)CC[C@@]1(CCCCN1CCc1ccccc1F)C2=O             160

a. COc1ccc2c(c1)CCC1(CCCCN1CCc1ccccc1C)C2=O (stereo unspecified)
b. COc1ccc2c(c1)CCC1(CCCCN1CC(C)c1ccccc1)C2=O (stereo unspecified)
Of a and b , which shows the smaller IC50 value? Select an item and report its label.
a
